Values were extracted from the NIST ThermoML archive (doi:10.1016/j.jct.2012.04.015).

test-conditions: 298.15 K; 101.33 kPa; Liquid; Vibrating tube method
For each of the compounds below, state its mass density.
Expressed in kg/m3, but write only the number.

The compound listed as CCCCCCC [heptane] shows mass density equal to 679.57

The compound listed as Cc1ccccc1 [toluene] shows mass density equal to 862.23

The compound listed as `CCCCCC[n+]1ccn(C)c1.O=S(=O)([N-]S(=O)(=O)C(F)(F)F)C(F)(F)F` shows mass density equal to 1371.99

The compound listed as C1CCCCC1 [cyclohexane] shows mass density equal to 773.88

The compound listed as CCCCn1cc[n+](C)c1.O=S(=O)([O-])C(F)(F)F [1-butyl-3-methylimidazolium trifluoromethanesulfonate] shows mass density equal to 1303.63
